Listing of entries alongside the reported pKi.
targetOfAssay: human recombinant GABAAR containing α5β3γ2 subunits (benzodiazepine site) (Homo sapiens, UniProt P18507+P31644)
Construct: expressed in transfected cells; host or cells: mouse L(tk−) cells, dexamethasone-inducible vector pMSGneo
experiment: In vitro radioligand binding assay (α5-GABAAR Ki)
runConditions: inhibition of [3H]Ro15-1788 binding, membranes of L(tk−) cells expressing human α5β3γ2; read-out: α5-GABAAR Ki
// pKi here means minus log10 of the molar concentration (mol/L)

Example results:
COc1nc(-c2ccc(N3CC[C@@H](O)C3)nc2)ccc1NC(=O)c1c(-c2ccccc2)noc1C [Example 99] : 8.17
COc1nc(-c2nccs2)ccc1NC(=O)c1c(-c2ccccc2)noc1C [Example 66] : 6.63
COc1nc(-c2cnoc2)ccc1NC(=O)c1c(-c2ccc(F)cc2)noc1N1CCC1 [Example 210] : 7.86
COc1nc(-c2ncco2)ccc1NC(=O)c1c(-c2ccccc2)noc1C [Example 123] : 7.93
COc1nc(-c2cnn(C)c2)cnc1NC(=O)c1c(-c2ccccc2)noc1C [Example 19] : 8.37

Sure, the documented pKi for COc1nc(-c2ccc(CO)nc2)ccc1NC(=O)c1c(C)nnn1-c1ccccc1 [Example 160] is 7.55

###

Listing of entries alongside the reported pKi.
targetOfAssay: human recombinant GABAAR containing α5β3γ2 subunits (benzodiazepine site) (Homo sapiens, UniProt P18507+P31644)
Construct: expressed in transfected cells; host or cells: mouse L(tk−) cells, dexamethasone-inducible vector pMSGneo
experiment: In vitro radioligand binding assay (α5-GABAAR Ki)
runConditions: inhibition of [3H]Ro15-1788 binding, membranes of L(tk−) cells expressing human α5β3γ2; read-out: α5-GABAAR Ki
Description: Mouse L(tk^−) cells stably expressing human α1β3γ2, α2β3γ2, α3β3γ2, α5β3γ2 GABAARs generated by transfection of the individual subunits in the dexamethasone-inducible expression vector pMSGneo in mouse L(tk^−) cells (Hadingham et al., 1993, Mol. Pharmacol. 43:970-975 and 1993, Mol. Pharmacol. 44:1211-1218) were used for binding and functional assays. […] The % inhibition of [^3H] Ro15-1788 binding was plotted as a function of compound concentration and the IC50 calculated. […]
// pKi here means minus log10 of the molar concentration (mol/L)

Sure, the documented pKi for COc1nc(-c2cnc(OC3CNC3)nc2)ccc1NC(=O)c1c(-c2ccccc2)noc1C [Example 189] is 9.15

Sure, the documented pKi for COc1cc(-c2cccc3nccn23)cnc1NC(=O)c1c(-c2ccccc2)noc1C [Example 29] is 8.82

###

targetOfAssay: human α5β3γ2 GABAARs in mouse L(tk−) cells (Homo sapiens, UniProt P18507+P31644)
Construct: expressed in transfected cells; host or cells: mouse L(tk−) cells, dexamethasone-inducible vector pMSGneo
Sequence (P31644 32-462): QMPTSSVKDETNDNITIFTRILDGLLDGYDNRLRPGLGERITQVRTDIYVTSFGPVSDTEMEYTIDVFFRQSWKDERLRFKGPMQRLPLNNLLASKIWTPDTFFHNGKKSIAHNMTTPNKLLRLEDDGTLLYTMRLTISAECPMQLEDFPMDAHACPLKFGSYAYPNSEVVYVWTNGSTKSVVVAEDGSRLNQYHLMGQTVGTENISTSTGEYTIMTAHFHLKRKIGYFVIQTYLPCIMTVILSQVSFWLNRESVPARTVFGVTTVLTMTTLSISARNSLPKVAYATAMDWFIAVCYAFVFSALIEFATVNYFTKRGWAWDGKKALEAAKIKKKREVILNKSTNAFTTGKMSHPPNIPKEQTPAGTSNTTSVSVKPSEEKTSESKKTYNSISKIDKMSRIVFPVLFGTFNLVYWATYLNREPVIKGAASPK
Sequence (P28472 26-473 partner): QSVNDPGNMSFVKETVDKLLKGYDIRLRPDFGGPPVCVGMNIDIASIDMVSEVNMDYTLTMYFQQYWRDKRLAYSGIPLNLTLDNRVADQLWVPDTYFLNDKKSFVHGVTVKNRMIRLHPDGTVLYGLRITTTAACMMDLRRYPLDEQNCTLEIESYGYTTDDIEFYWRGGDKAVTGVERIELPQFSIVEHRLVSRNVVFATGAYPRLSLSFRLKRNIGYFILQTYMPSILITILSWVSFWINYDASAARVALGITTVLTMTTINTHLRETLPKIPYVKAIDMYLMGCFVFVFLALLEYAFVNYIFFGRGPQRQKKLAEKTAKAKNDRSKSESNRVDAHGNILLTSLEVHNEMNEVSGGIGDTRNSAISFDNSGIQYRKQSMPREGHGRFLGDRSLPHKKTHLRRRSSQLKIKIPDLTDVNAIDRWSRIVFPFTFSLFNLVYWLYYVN
Sequence (P18507 40-475): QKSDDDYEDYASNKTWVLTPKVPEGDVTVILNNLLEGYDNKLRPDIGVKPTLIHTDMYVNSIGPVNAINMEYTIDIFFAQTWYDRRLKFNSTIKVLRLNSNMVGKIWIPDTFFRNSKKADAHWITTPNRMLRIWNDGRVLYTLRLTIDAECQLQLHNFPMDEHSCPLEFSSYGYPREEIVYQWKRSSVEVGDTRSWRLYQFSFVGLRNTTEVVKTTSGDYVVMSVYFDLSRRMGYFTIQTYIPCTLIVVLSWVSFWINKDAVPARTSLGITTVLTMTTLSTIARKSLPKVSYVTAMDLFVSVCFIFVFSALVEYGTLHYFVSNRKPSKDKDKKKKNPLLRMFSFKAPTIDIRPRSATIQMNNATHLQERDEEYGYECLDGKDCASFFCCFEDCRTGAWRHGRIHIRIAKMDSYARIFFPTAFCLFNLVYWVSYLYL
experiment: In vitro electrophysiological recording assay (α5-GABAAR relative efficacy), QPatch
Format: cell-based
runConditions: Conc 0.3 μM; GABA EC10-20
propertyMeasured: α5-GABAAR Relative Efficacy (to DMCM), Qpatch
Please respond with just the number, no unit label.

COc1nc(-c2cnc(N3CCCC(CO)C3)nc2)ccc1NC(=O)c1c(-c2ccccc2)noc1C (stereo not drawn) [Example 92] : −0.66

Below: the item to evaluate.
Here COc1nc(-n2cnc3c2CCNC3)ccc1NC(=O)c1c(-c2ccccc2)noc1C.Cl [Example 178] was tested on human α5β3γ2 GABAARs in mouse L(tk−) cells (Homo sapiens, UniProt P18507+P31644), and its α5-GABAAR Relative Efficacy (to DMCM), Qpatch came to −0.62

###

targetOfAssay: human recombinant GABAAR containing α5β3γ2 subunits (benzodiazepine site) (Homo sapiens, UniProt P18507+P31644)
Construct: expressed in transfected cells; host or cells: mouse L(tk−) cells, dexamethasone-inducible vector pMSGneo
experiment: In vitro radioligand binding assay (α5-GABAAR Ki)
runConditions: inhibition of [3H]Ro15-1788 binding, membranes of L(tk−) cells expressing human α5β3γ2; read-out: α5-GABAAR Ki
Rule: Ki below 2 nM gives rule met, anything at or above gives rule not met.

These solved cases illustrate the format of a correct answer.
COc1nc(-c2cnnn2C)ccc1NC(=O)c1c(-c2ccccc2)noc1C [Example 102] : rule met
COc1nc(-c2cnc3c(c2)OCO3)ccc1NC(=O)c1c(-c2ccccc2)noc1C [Example 106] : rule not met
Cc1onc(-c2ccccc2)c1C(=O)Nc1ccc(-n2ccnc2)nc1N(C)C [Example 176] : rule not met
COc1nc(-c2nnn(C)c2C)ccc1NC(=O)c1c(-c2ccccc2)noc1C [Example 101] : rule not met

Identify whether the compound COc1nc(-c2ccnnc2)ccc1NC(=O)c1c(-c2ccccc2)noc1C [Example 104] records Ki below 2 nM. rule met

Identify whether the compound COc1nc(-c2cc(OC)c3cn[nH]c3c2)ccc1NC(=O)c1c(-c2ccccc2)noc1C [Example 32] records Ki below 2 nM. rule not met

###

targetOfAssay: human α5β3γ2 GABAARs in mouse L(tk−) cells (Homo sapiens, UniProt P18507+P31644)
Construct: expressed in transfected cells; host or cells: mouse L(tk−) cells, dexamethasone-inducible vector pMSGneo
experiment: In vitro electrophysiological recording assay (α5-GABAAR relative efficacy), QPatch
Assay type: cell-based
runConditions: Conc 0.3 μM; GABA EC10-20
Quick rule: α5-GABAAR Relative Efficacy (to DMCM), Qpatch of at least -0.8 means MET, below that means NOT MET.

Does the molecule COc1nc(-c2cnc(CN)nc2)ccc1NC(=O)c1c(-c2ccc(F)cc2)nnn1C.Cl have recorded α5-GABAAR Relative Efficacy (to DMCM), Qpatch that is -0.8 or more? MET

Does the molecule COc1nc(-c2cnc(CN)nc2)cnc1NC(=O)c1c(-c2ccccc2)noc1C.Cl have recorded α5-GABAAR Relative Efficacy (to DMCM), Qpatch that is -0.8 or more? NOT MET

Does the molecule COc1nc(-c2cncc(N)c2)ccc1NC(=O)c1c(-c2ccccc2)noc1C have recorded α5-GABAAR Relative Efficacy (to DMCM), Qpatch that is -0.8 or more? NOT MET

Does the molecule COc1nc(-c2cnc(C(F)(F)F)nc2)ccc1NC(=O)c1c(-c2ccccc2)noc1C have recorded α5-GABAAR Relative Efficacy (to DMCM), Qpatch that is -0.8 or more? NOT MET

Does the molecule COc1nc(-n2cnnc2)ccc1NC(=O)c1c(-c2ccccc2)noc1C have recorded α5-GABAAR Relative Efficacy (to DMCM), Qpatch that is -0.8 or more? MET

Does the molecule CNCc1ncc(-c2ccc(NC(=O)c3c(-c4ccccc4)noc3C)c(OC)n2)cn1.Cl have recorded α5-GABAAR Relative Efficacy (to DMCM), Qpatch that is -0.8 or more? MET

Does the molecule COc1nc(-c2cccnc2)ccc1NC(=O)c1c(-c2ccccc2)noc1C have recorded α5-GABAAR Relative Efficacy (to DMCM), Qpatch that is -0.8 or more? MET

Does the molecule COc1nc(-c2ccc3nncn3c2)ccc1NC(=O)c1c(-c2ccccc2)noc1C have recorded α5-GABAAR Relative Efficacy (to DMCM), Qpatch that is -0.8 or more? MET

Does the molecule COc1nc(-c2cnc3cnn(C)c3c2)ccc1NC(=O)c1c(-c2ccccc2)noc1C have recorded α5-GABAAR Relative Efficacy (to DMCM), Qpatch that is -0.8 or more? MET

Does the molecule COc1ncc(-c2ccc(NC(=O)c3c(-c4ccccc4)noc3C)c(OC)n2)cn1 have recorded α5-GABAAR Relative Efficacy (to DMCM), Qpatch that is -0.8 or more? NOT MET

Does the molecule COc1nc(-c2cnc(CN(C)C)nc2)ccc1NC(=O)c1c(-c2ccccc2)noc1C have recorded α5-GABAAR Relative Efficacy (to DMCM), Qpatch that is -0.8 or more? NOT MET

Does the molecule COc1nc(-c2ccc(CO)nc2)ccc1NC(=O)c1c(-c2ccccc2)noc1C have recorded α5-GABAAR Relative Efficacy (to DMCM), Qpatch that is -0.8 or more? NOT MET

###

targetOfAssay: human recombinant GABAAR containing α5β3γ2 subunits (benzodiazepine site) (Homo sapiens, UniProt P18507+P31644)
Construct: expressed in transfected cells; host or cells: mouse L(tk−) cells, dexamethasone-inducible vector pMSGneo
experiment: In vitro radioligand binding assay (α5-GABAAR Ki)
runConditions: inhibition of [3H]Ro15-1788 binding, membranes of L(tk−) cells expressing human α5β3γ2; read-out: α5-GABAAR Ki
pKi: −log10 of the molar value. Structures can show the parent of a compound that is named as a salt.
Quick rule: pKi of at least 8 means True, below that means False.

These solved cases illustrate the format of a correct answer.
COc1cc(-c2cnc(N)cn2)ccc1NC(=O)c1c(-c2ccccc2)noc1C [Example 198, hydrochloride] : True
COc1nc(-c2cccc(N(C)C)c2)ccc1NC(=O)c1c(-c2ccccc2)noc1C [Example 16] : False
COc1nc(-c2ccc(CN3CCOCC3)nc2)ccc1NC(=O)c1c(-c2ccccc2)noc1C [Example 230] : True
COc1nc(-c2ccc(SC(F)(F)F)nc2)ccc1NC(=O)c1c(-c2ccccc2)noc1C [Example 76] : False
CNCCNC(=O)c1ncc(-c2ccc(NC(=O)c3c(-c4ccccc4)noc3C)c(OC)n2)cn1.Cl [Example 173, hydrochloride] : True

Does the compound COc1nc(-c2ccc(CN3CC4(COC4)C3)nc2)ccc1NC(=O)c1c(-c2ccccc2)noc1C [Example 231] have recorded pKi that is 8 or more? True

Does the compound COc1ncc(-c2ccc(NC(=O)c3c(-c4ccccc4)noc3C)c(OC)n2)c(C)n1 [Example 191] have recorded pKi that is 8 or more? True
